- System: HS 578T breast
- procedure summary: NCI tumour cell line growth inhibition, 48 h
measurement name: GI50

Check out these entries, answers already filled in.
>  <sample smiles>
COc1ccc(C(=NN=C(N)N)c2ccc(OC)cc2)cc1

>  <GI50>
1.75 µM

$$$$
>  <sample smiles>
COc1ccc(NC2=C(I)C(=O)c3ncccc3C2=O)cc1

>  <GI50>
0.834 µM

$$$$
>  <sample smiles>
Cc1ccc(C=C2C(Cl)=C(Cl)C(Cl)=C2Cl)cc1

>  <GI50>
0.636 µM

$$$$
>  <sample smiles>
CC(C)(c1ccccc1)c1cc(O)c(C(C)(C)c2ccccc2)cc1O

>  <GI50>
3.19 µM

$$$$
>  <sample smiles>
Cn1cc(C2=C(c3cn(-c4ccccc4)c4ccccc34)C(=O)NC2=O)c2ccccc21

>  <GI50>
> 14.6 µM

$$$$

In: Give GI50 (HS 578T breast) of the following molecule: C=CC(=O)N1C[C@@H]2CCOc3c(Cl)c(-c4c(O)cccc4F)c(F)c4ncnc(c34)N2C[C@H]1C
Out: 16.5 µM

###

- Tested on: ACHN renal
- procedure summary: NCI tumour cell line growth inhibition, 48 h
measurement name: TGI

Check out these entries, answers already filled in.
>  <compound>
O=C(Cc1ccccc1)NN1C(=O)/C(=C\c2cccc([N+](=O)[O-])c2)SC1=Nc1ccccc1

>  <TGI>
> 100 µM

$$$$
>  <compound>
COc1cc2cc(C(=O)N3CC(CCl)c4ccc([N+](=O)[O-])cc43)[nH]c2c(OC)c1OC (stereo unspecified)

>  <TGI>
> 100 µM

$$$$
>  <compound>
C=CC(=O)N1C[C@@H]2CCOc3c(Cl)c(-c4c(O)cccc4F)c(F)c4ncnc(c34)N2C[C@H]1C

>  <TGI>
22.2 µM

$$$$
>  <compound>
O=C1OC(C2Cc3ccc4c(c3C2=O)CCC4)c2ccccc21 (stereo unspecified)

>  <TGI>
> 100 µM

$$$$

// for each compound in input: emit TGI
1. CCOC(=O)c1ccc(C(=O)n2ccnc2)[nH]1
2. N#CC1=C(N)NC(=S)NC12Nc1ccccc1S2 (stereo unspecified)
3. Cc1cnc2oc3ccc(O)cc3c2c1-c1ccccc1
4. CC(C)(C)C(=O)Nc1cccc2oc(-c3ccccc3)cc12
5. Cc1ccc(C=C2C(Cl)=C(Cl)C(Cl)=C2Cl)cc1

Out:
1: > 100 µM; 2: 74.3 µM; 3: > 100 µM; 4: > 100 µM; 5: 1.94 µM

// for each compound in input: emit TGI
1. COc1c(/C=C/C=O)cc2c(c1OC)OCO2
2. O=Nc1c(-c2c(O)[nH]c3cc(Br)ccc23)[nH]c2ccccc12

Out:
1. > 100 µM
2. 1.91 µM

###

- Test system: A498 renal
- procedure summary: NCI tumour cell line growth inhibition, 48 h; in the data active means GI50 below about 0.43 µM; inactive means the rest
// allowed return values: active, inactive

>  <molecule>
COc1ccc(C(=NN=C(N)N)c2ccc(OC)cc2)cc1

>  <class label>
inactive

$$$$

Proceed to the following item.
In: Query: recorded result category for CCc1cnn2c(NCc3ccc[n+]([O-])c3)cc(N3CCCC[C@H]3CCO)nc12 in this test
Out: active

###

- System: SK-MEL-2 melanoma
- procedure summary: NCI tumour cell line growth inhibition, 48 h; in the data active = GI50 below about 0.43 µM; inactive = the rest
// allowed return values: TRUE for active, FALSE for inactive

Consider the worked cases shown below.
>  <molecule>
N#CC(C#N)=C1CCOc2ccc(F)cc21

>  <class label>
FALSE

$$$$
>  <molecule>
Cc1ccc2cccc(OC(=O)Nc3cccc(C(F)(F)F)c3)c2n1

>  <class label>
FALSE

$$$$
>  <molecule>
COC1=C(C)C(=O)c2c(c(CCCl)c3n2CCC3OC(C)=O)C1=O (stereo not given)

>  <class label>
TRUE

$$$$
>  <molecule>
COC(=O)[C@]12CC[C@@H](C)[C@H](C)[C@@H]1C1=CC[C@@H]3[C@@]4(C)C[C@@H](OC(=O)/C=C/c5ccccc5)[C@H](O)[C@@](C)(CO)[C@@H]4[C@H](O)C[C@@]3(C)[C@]1(C)CC2

>  <class label>
FALSE

$$$$
>  <molecule>
N#CC1=C(N)NC(=S)NC12Nc1ccccc1S2 (stereo not given)

>  <class label>
FALSE

$$$$

In: Query: recorded result category for NC(=S)N/N=C1\c2ccccc2-c2c(F)c(F)c(F)c(F)c21 in this test
Out: FALSE

In: Query: recorded result category for C#Cc1cccc(Nc2ncnc3ccc(OCCCCNCCS(C)(=O)=O)cc23)c1 in this test
Out: FALSE

In: Query: recorded result category for C#CC(=O)Nc1cccc2c1cc(C)n2-c1nc2c(c(NCc3ccccc3)n1)CCCC2 in this test
Out: FALSE

Data origin, for the record: PubChem BioAssay (NCI)
